- Tested on: NCI-H2085
- experimental_protocol: relative viability (nuclei count vs DMSO), 5 days (fraction); higher = more cells survive
- recorded_conditions: first compound 0.06325 µM
For each of the compounds below, state its relative viability.
Provide a numeric answer; units are not to be included.

[ask] What value of relative viability on NCI-H2085 does CCNC(=O)c1noc(-c2cc(C(C)C)c(O)cc2O)c1-c1ccc(CN2CCOCC2)cc1 [Luminespib] + C[C@@H](Oc1cc(-c2cnn(C3CCNCC3)c2)cnc1N)c1c(Cl)ccc(F)c1Cl [Crizotinib] (partner 1 µM) have?
[reply] 0.383

[ask] Also CCNC(=O)c1noc(-c2cc(C(C)C)c(O)cc2O)c1-c1ccc(CN2CCOCC2)cc1 [Luminespib] + CC(=O)Nc1cccc(-n2c(=O)n(C3CC3)c(=O)c3c(Nc4ccc(I)cc4F)n(C)c(=O)c(C)c32)c1 [Trametinib] (partner 0.02 µM) ?
[reply] 0.202

[ask] What do we get for CCNC(=O)c1noc(-c2cc(C(C)C)c(O)cc2O)c1-c1ccc(CN2CCOCC2)cc1 [Luminespib] + N=C(N)NC(=N)NCCc1ccccc1 [Phenformin] (partner 250 µM) ?
[reply] 0.221

[ask] CCNC(=O)c1noc(-c2cc(C(C)C)c(O)cc2O)c1-c1ccc(CN2CCOCC2)cc1 [Luminespib] + CC1(C)CCC(c2ccc(Cl)cc2)=C(CN2CCN(c3ccc(C(=O)NS(=O)(=O)c4ccc(N[C@H](CCN5CCOCC5)CSc5ccccc5)c(S(=O)(=O)C(F)(F)F)c4)cc3)CC2)C1 [Navitoclax] (partner 0.5 µM) ?
[reply] 0.677

[ask] Likewise for CCNC(=O)c1noc(-c2cc(C(C)C)c(O)cc2O)c1-c1ccc(CN2CCOCC2)cc1 [Luminespib] + Nc1ncn([C@H]2C[C@H](O)[C@@H](CO)O2)c(=O)n1 [Decitabine] (partner 2 µM) ?
[reply] 0.486

[ask] Also, CCNC(=O)c1noc(-c2cc(C(C)C)c(O)cc2O)c1-c1ccc(CN2CCOCC2)cc1 [Luminespib] + O=C(CCCCCCC(=O)Nc1ccccc1)NO [Vorinostat] (partner 1 µM) please.
[reply] 0.367

###

- Test system: NCI-H520
- experimental_protocol: relative viability (nuclei count vs DMSO), 5 days (fraction); higher = more cells survive
- recorded_conditions: first compound 0.03162 µM
# Condition met = relative viability below 0.5 (exclusive); Condition not met = relative viability at/above 0.5

[ask] Would you kindly verify if relative viability of Cc1cn(-c2cc(NC(=O)c3ccc(C)c(Nc4nccc(-c5cccnc5)n4)c3)cc(C(F)(F)F)c2)cn1 [Nilotinib] + CS(=O)(=O)N1CCN(Cc2cc3nc(-c4cccc5[nH]ncc45)nc(N4CCOCC4)c3s2)CC1 [Pictilisib] (partner 1 µM) is strictly less than 0.5?
[reply] Condition met

[ask] Also Cc1cn(-c2cc(NC(=O)c3ccc(C)c(Nc4nccc(-c5cccnc5)n4)c3)cc(C(F)(F)F)c2)cn1 [Nilotinib] + O=C(CCCCCCC(=O)Nc1ccccc1)NO [Vorinostat] (partner 1 µM) ?
[reply] Condition not met

[ask] Okay, and Cc1cn(-c2cc(NC(=O)c3ccc(C)c(Nc4nccc(-c5cccnc5)n4)c3)cc(C(F)(F)F)c2)cn1 [Nilotinib] + Nc1nc2[nH]cc(CCc3ccc(C(=O)N[C@@H](CCC(=O)O)C(=O)O)cc3)c2c(=O)[nH]1 [Pemetrexed] (partner 0.2 µM) ?
[reply] Condition not met

[ask] Entry to check: Cc1cn(-c2cc(NC(=O)c3ccc(C)c(Nc4nccc(-c5cccnc5)n4)c3)cc(C(F)(F)F)c2)cn1 [Nilotinib] + C[C@@H](Oc1cc(-c2cnn(C3CCNCC3)c2)cnc1N)c1c(Cl)ccc(F)c1Cl [Crizotinib] (partner 1 µM)
[reply] Condition met

[ask] Now try Cc1cn(-c2cc(NC(=O)c3ccc(C)c(Nc4nccc(-c5cccnc5)n4)c3)cc(C(F)(F)F)c2)cn1 [Nilotinib] + Cc1cc(Nc2cc(N3CCN(C)CC3)nc(Sc3ccc(NC(=O)C4CC4)cc3)n2)n[nH]1 [Tozasertib] (partner 0.1 µM) .
[reply] Condition met

[ask] Also Cc1cn(-c2cc(NC(=O)c3ccc(C)c(Nc4nccc(-c5cccnc5)n4)c3)cc(C(F)(F)F)c2)cn1 [Nilotinib] + CCNC(=O)c1noc(-c2cc(C(C)C)c(O)cc2O)c1-c1ccc(CN2CCOCC2)cc1 [Luminespib] (partner 0.01 µM) ?
[reply] Condition met
